These data points were gathered from PubChem BioAssay AID1508591.

settings: rat; liver microsomes; pH 7.4; 15.0 min; 1.0 µM
observed-property: half-life

compound | half-life
Cc1nc(-c2ccco2)cc([C@H]2CN3CC[C@H]2C[C@@H]3CNC(=O)NC2CCCCC2)n1 | 29.6 min
CC(=O)Nc1nc(-c2ccc3c(c2)CCN3C(=O)c2ccccc2C)c(C)s1 | 18 min
COc1ccc(-c2ccc3nc(-c4ccc(SC)cc4)oc3c2)c(OC)c1OC | 1.8 min
Cc1ccc(S(=O)(=O)N2CCN(C(=O)c3cc4c(s3)CCC4)CC2)cc1 | 1.58 min
O=C(Nc1ccccc1)C1CCN(c2nc(-c3ccc(Br)cc3)cs2)CC1 | 1.53 min

Request: Which value of half-life has been reported for CCN1CCN(C(=O)c2cc(-c3ccc(F)cc3)c3nncn3n2)CC1 in the records?
Response: > 30 min

Request: Form field: reported half-life of COc1ccnc(NC(=S)N2CCN(c3ccc(Cl)c(Cl)c3)CC2)c1
Response: 20 min

Request: I would be grateful if you could share the reported half-life for CCN1CCN(C(=O)CCCn2nc(C)c3c(C)n(-c4ccc(C)cc4)nc3c2=O)CC1 .
Response: 22.2 min

Request: Which half-life value belongs to CC1CN(c2ccc(Nc3nc(-c4ccncc4)nc4ccccc34)cc2F)CC(C)O1 (stereo not given) ?
Response: 5 min

Request: Would you mind telling me what half-life value was observed for C[C@@H](NC(=O)c1ncnc(N)c1Cl)c1ncc(C(=O)Nc2cc(C(F)(F)F)c(Cl)cn2)s1 ?
Response: > 30 min
